Data provenance: patent US10722520B2

Molecular target: TEM-1 (Escherichia coli, UniProt P62593)
Conditions: read-out: IC50 β-lactamase TEM-1; class (A); nitrocefin 200 μM, 30-min pre-incubation, enzyme 0.1 nM
property: pIC50
Field pIC50 (float): negative decimal logarithm of the concentration in molar.

Field: example entries. Status: answers known.
compound	pIC50
NCCNC(=O)Cc1ccn(C2=CC3CN(C2)C(=O)N3OS(=O)(=O)[O-])n1.O=C(O)C(F)(F)F.[Na+] (stereo not drawn)	8.85
CC(=O)Nc1cnn(C2=CC3CN(C2)C(=O)N3OS(=O)(=O)[O-])c1.[Na+] (stereo not drawn)	8.21

Next item in the queue.
Query (compound): O=C([O-])CCc1cn(C2=CC3CN(C2)C(=O)N3OS(=O)(=O)[O-])nn1.[Na+].[Na+] (stereo not drawn) ; field requested: pIC50
9.57

* * *

Target: CTX-M-15 (Escherichia coli)
Details: read-out: IC50 β-lactamase CTX-M-15; class (A); nitrocefin 200 μM, 30-min pre-incubation, enzyme 0.4 nM
pIC50: −log10 of the molar value.
Would you please tag the item Met when its pIC50 is 9 or above, and Not met when it is below?

molecule	assigned-label
NC(=O)c1cn(C2=CC3CN(C2)C(=O)N3OS(=O)(=O)[O-])nn1.[Na+] (stereo not drawn)	Met
CC(=O)Nc1cnn(C2=CC3CN(C2)C(=O)N3OS(=O)(=O)[O-])c1.[Na+] (stereo not drawn)	Not met
NCc1ccn(C2=CC3CN(C2)C(=O)N3OS(=O)(=O)[O-])n1.O=C(O)C(F)(F)F.[Na+] (stereo not drawn)	Not met

Confirm if pIC50 reported for the molecule O=C1N2CC(n3cc(N4CCOCC4)cn3)=CC(C2)N1OS(=O)(=O)[O-].[Na+] (stereo not drawn) is 9 or above.
Not met

* * *

Test system: E. cloacae UFR85
Test: MIC of ceftazidime (CAZ) at fixed concentration of compound (synergy), broth microdilution
Type: cell-based
Settings: MIC of ceftazidime with compound fixed at 4 μg/mL; strain UFR85 (E. cloacae)
property: MIC combination of CAZ and compounds of the invention at 4 μg/mL

Field: example entries. Status: answers known.
molecule	obs-value
O=C1N2CC(n3ccnn3)=CC(C2)N1OS(=O)(=O)[O-].[Na+] (centres unmarked)	<0.25
O=C1N2CC(n3cccn3)=CC(C2)N1OC(F)(F)C(=O)[O-].[Li+] (centres unmarked)	1
O=C1N2CC(n3nccn3)=CC(C2)N1OS(=O)(=O)O (centres unmarked)	<0.25
O=C1N2CC(n3ccnn3)=C[C@H](C2)N1OS(=O)(=O)O	<0.25

Next item in the queue.
Param readout = MIC combination of CAZ and compounds of the invention at 4 μg/mL; param system = E. cloacae UFR85; param query = O=C1N2CC(n3ccsc3=O)=CC(C2)N1OS(=O)(=O)[O-].[Na+] (centres unmarked) ; response: value
<0.25

* * *

Tested on: K. pneumoniae UFR68
Test: MIC of compound alone, broth microdilution
Format: cell-based
Conditions: Klebsiella pneumoniae; strain UFR68: K. pneumoniae; TEM-1, SHV-11, CTX-M-15, KPC-3; read-out: MIC compounds of the invention alone
property: MIC (µg/mL)
Value expressed in µg/mL; do not type the unit.

Field: example entries. Status: answers known.
compound	experimental-system	MIC [µg/mL]
O=C1N2CC(n3nccn3)=CC(C2)N1OS(=O)(=O)O (stereo not shown)	K. pneumoniae UFR68	8
O=C1N2CC(n3ccsc3=O)=CC(C2)N1OS(=O)(=O)[O-].[Na+] (stereo not shown)	K. pneumoniae UFR68	8
O=C1N2CC(n3ccnn3)=C[C@H](C2)N1OS(=O)(=O)O	K. pneumoniae UFR68	1

Query (compound): O=C1N2CC(n3cncn3)=CC(C2)N1OS(=O)(=O)[O-].[Na+] (stereo not shown) ; field requested: MIC
4

* * *

IC50, OXA-48 (Klebsiella pneumoniae, UniProt Q6XEC0): measured values
Include the unit after the number when you answer.

molecule	experimental-system	IC50
O=C(N[C@H]1CCNC1)c1ccn(C2=CC3CN(C2)C(=O)N3OS(=O)(=O)O)n1 (stereo partly shown)	OXA-48 (Klebsiella pneumoniae, UniProt Q6XEC0)	3.2 nM
NS(=O)(=O)c1cnn(C2=CC3CN(C2)C(=O)N3OS(=O)(=O)[O-])c1.[Na+] (stereo not shown)	OXA-48 (Klebsiella pneumoniae, UniProt Q6XEC0)	12 nM
O=C1N2CC(n3cc(N4CCNCC4)cn3)=CC(C2)N1OS(=O)(=O)O (stereo not shown)	OXA-48 (Klebsiella pneumoniae, UniProt Q6XEC0)	9.1 nM

Next item in the queue.
Param readout = IC50; param system = OXA-48 (Klebsiella pneumoniae, UniProt Q6XEC0); param query = "O=C1N2CC(n3ccnn3)=C[C@H](C2)N1OS(=O)(=O)O" ; response: value
0.38 nM

* * *

Biological target: OXA-1 (Escherichia coli)
Output true for records whose IC50 is lower than 0.1 µM, false for records at or above 0.1 µM.

Identify whether the molecule O=C(NCCO)c1ccn(C2=CC3CN(C2)C(=O)N3OS(=O)(=O)[O-])n1.[Na+] (stereo not drawn) records IC50 below 0.1 µM.
true

Identify whether the molecule CNCc1cn(C2=CC3CN(C2)C(=O)N3OS(=O)(=O)O)nn1 (stereo not drawn) records IC50 below 0.1 µM.
false

* * *

pIC50, TEM-1 (Escherichia coli, UniProt P62593): measured values
Field pIC50 (float): negative decimal logarithm of the concentration in molar.

compound	experimental-system	pIC50
O=C(Nc1nncs1)c1ccn(C2=CC3CN(C2)C(=O)N3OS(=O)(=O)[O-])n1.[Na+] (stereo not shown)	TEM-1 (Escherichia coli, UniProt P62593)	9.11
O=C1N2CC(n3cc(F)cn3)=CC(C2)N1OS(=O)(=O)[O-].[Na+] (stereo not shown) [Example 14, sulfate]	TEM-1 (Escherichia coli, UniProt P62593)	9.06
NCCc1cnn(C2=CC3CN(C2)C(=O)N3OS(=O)(=O)O)c1 (stereo not shown)	TEM-1 (Escherichia coli, UniProt P62593)	9.24

Next item in the queue.
Param readout = pIC50; param system = TEM-1 (Escherichia coli, UniProt P62593); param query = O=C(NC1CCNCC1)c1ccn(C2=CC3CN(C2)C(=O)N3OS(=O)(=O)O)n1 (stereo not shown) ; response: value
8.96

* * *

Tested on: E. coli 190317
Assay: MIC of compound alone, broth microdilution
Format: cell-based
Settings: Escherichia coli; strain 190317; compound alone; read-out: MIC compounds of the invention alone
Here the recorded MIC is given for each entry.

Field: example entries. Status: answers known.
compound	MIC
NCCONC(=O)c1ccn(C2=CC3CN(C2)C(=O)N3OS(=O)(=O)O)n1 (centres unmarked)	2 µg/mL
O=C(NC1CCNCC1)c1ccn(C2=CC3CN(C2)C(=O)N3OS(=O)(=O)O)n1 (centres unmarked)	8 µg/mL
O=C(CO)Nc1ccn(C2=CC3CN(C2)C(=O)N3OS(=O)(=O)[O-])n1.[Na+] (centres unmarked)	8 µg/mL

Query (compound): NCCc1ccn(C2=CC3CN(C2)C(=O)N3OS(=O)(=O)O)n1 (centres unmarked) ; field requested: MIC
1 µg/mL

* * *

Here the recorded IC50 is given for each entry.
Target: AmpC (P99) (Enterobacter cloacae, UniProt P05364)
Experiment: biochemical
Value expressed in nM; do not type the unit.

Field: example entries. Status: answers known.
compound	u	obs-value
CNCc1cn(C2=CC3CN(C2)C(=O)N3OS(=O)(=O)O)nn1 (stereo not shown) [Example 60]	nM	27
O=C(c1ccn(C2=CC3CN(C2)C(=O)N3OS(=O)(=O)[O-])n1)N1CCOCC1.[Na+] (stereo not shown) [Example 31, sulfate]	nM	15
O=C(NCCO)c1ccn(C2=CC3CN(C2)C(=O)N3OS(=O)(=O)[O-])n1.[Na+] (stereo not shown) [Example 11]	nM	27

Query (compound): CC(=O)c1ccn(C2=CC3CN(C2)C(=O)N3OS(=O)(=O)[O-])n1.[Na+] (stereo not shown) [Example 28, sulfate] ; field requested: IC50
10

* * *

Biological target: AmpC (PAE) (Pseudomonas aeruginosa, UniProt P24735)
Experiment: biochemical
property: log10(IC50) (log10 of the value in µM)
A difference of one corresponds to tenfold IC50; all values are log10 with IC50 in µM.

molecule	experimental-system	log10(IC50)
O=C(Nc1ncco1)c1ccn(C2=CC3CN(C2)C(=O)N3OS(=O)(=O)[O-])n1.[Na+] (centres unmarked) [Example 37]	AmpC (PAE) (Pseudomonas aeruginosa, UniProt P24735)	-0.70
NCCNC(=O)c1cnn(C2=CC3CN(C2)C(=O)N3OS(=O)(=O)O)c1 (centres unmarked) [Example 38]	AmpC (PAE) (Pseudomonas aeruginosa, UniProt P24735)	-0.68

Param readout = log10(IC50); param system = AmpC (PAE) (Pseudomonas aeruginosa, UniProt P24735); param query = NC(=O)c1cnn(C2=CC3CN(C2)C(=O)N3OS(=O)(=O)[O-])c1.[Na+] (centres unmarked) [Example 7] ; response: value
-0.40

Param readout = log10(IC50); param system = AmpC (PAE) (Pseudomonas aeruginosa, UniProt P24735); param query = O=C(NCCO)c1ccn(C2=CC3CN(C2)C(=O)N3OS(=O)(=O)[O-])n1.[Na+] (centres unmarked) [Example 11] ; response: value
-0.37

Param readout = log10(IC50); param system = AmpC (PAE) (Pseudomonas aeruginosa, UniProt P24735); param query = O=C1N2CC(n3cc(F)cn3)=CC(C2)N1OS(=O)(=O)[O-].[Na+] (centres unmarked) [Example 14, sulfate] ; response: value
-1.68

Param readout = log10(IC50); param system = AmpC (PAE) (Pseudomonas aeruginosa, UniProt P24735); param query = N#Cc1cnn(C2=CC3CN(C2)C(=O)N3OS(=O)(=O)[O-])c1.[Na+] (centres unmarked) [Example 8] ; response: value
-0.85

Param readout = log10(IC50); param system = AmpC (PAE) (Pseudomonas aeruginosa, UniProt P24735); param query = O=C1N2CC(n3cc(CNCCO)nn3)=CC(C2)N1OS(=O)(=O)O (centres unmarked) [Example 67] ; response: value
-0.14

Param readout = log10(IC50); param system = AmpC (PAE) (Pseudomonas aeruginosa, UniProt P24735); param query = NCCONC(=O)c1ccn(C2=CC3CN(C2)C(=O)N3OS(=O)(=O)O)n1 (centres unmarked) [Example 46] ; response: value
-0.80
